test: folding stability dG unfold (combined trypsin and chymotrypsin); higher = more stable
Rule: folding stability dG unfold under 1 kcal/mol gives condition not met, otherwise condition met.

                            orderedresidues         labelvalue
0  SAGGSAGGSAGGSKKKVLYIKIDVKPNMTPEEVAKLLQEKFGVKIKKVEVENGYLKIYFSAGGSAGGSAGGS [r4_469_TrROS_Hall]      condition met
1  SKMYLVKIKIEVYKDGKLVKEEEIEIEVSEEEAKKLAEKLKEELPGYKVKIEIEVREIEPEDEELLKALESA [r9_782_TrROS_Hall]      condition met
2  SAGGSALTPAVAERLRELFPDGDLGLKAVKPGEVVVFPNGARNFNTEDAERVVVVLPDGEPLVLDVSAGGSA [r2_166_TrMRF]  condition not met
3  SAGGSAGGSAGAPNIVVVTLTRDALFYNPVEGKWEVKPVTLTRAFTSKEEADKWLEEIGLSAGGSAGGSAGG [r11_984_TrMRF]      condition met

INPUT: Hi, just wondering whether SAGGSAGGSKKKITVKIEEVKLNPETGKLVLVKIKLPDGKELVFKTPEEIENLPGAEFEVYELSAGGSAGGS [r20_192_TrROS_Hall] shows folding stability dG unfold of 1 kcal/mol or higher.
OUTPUT: condition met

INPUT: Could you verify whether the entry SIIVEPLPDNTFIAYFPETDSVIEIRVDPSTGKAHAIAELPGEPVEATFDPRKGVLVIELPNGRIVLPLLSA [r9_541_TrMRF] shows folding stability dG unfold of no less than 1 kcal/mol?
OUTPUT: condition met

INPUT: Check if folding stability dG unfold >= 1 kcal/mol (inclusive). Item: SAGGSAGGSAGGGSSGVSYGSVPIVIRDPSGNVVSTLTLRVYPDGTVVLEFPDGSLLLLSAGGSAGGSAGGS [r10_972_JUSTAS]
OUTPUT: condition met

INPUT: Given the entry SAGGSAGGLPEGDIYRIRVTLPNGNTFTITFPVKSVEQAKDFAKSFLESLGLPDVKVDIEPVPVSAGGSAGG [r6_844_TrROS] , answer whether its folding stability dG unfold meets or surpasses 1 kcal/mol.
OUTPUT: condition met

INPUT: Decide: folding stability dG unfold of SAGGSAGGSAGGIYEKAVEFAKAKGGKDIPVKIKYPDGSVKTLNVDDLPDLKSENVEIVPSAGGSAGGSAGG [r7_863_TrMRF] >= 1 kcal/mol?
OUTPUT: condition not met

INPUT: Is reported folding stability dG unfold greater than or equal to 1 kcal/mol here: SMTITVKPENIEEVLAQIKALAAKHPKPVTITLEMSPEEVEKLRKALEDAGYKVEVDEKTGKVRIEIKVPSA [r9_600_TrROS_Hall]
OUTPUT: condition met

INPUT: // inclusive: folding stability dG unfold at least 1 kcal/mol? input: SAGGSMQSVTSYDPNGVTYTTEFLPDEDVVTYTKTTDGTVTTTKVERLDEDGVPVPLSTSTTTLGGSAGGSA [r2_60_JUSTAS]
OUTPUT: condition not met

INPUT: Entry SAGGSAGGEPETIEIKMTPEELEELARELEKEGYTIEVEVVEEKVVGPDGKEREVVVRVRVEKRSAGGSAGG [r6_857_TrROS_Hall] : is its folding stability dG unfold no less than 1 kcal/mol?
OUTPUT: condition met

INPUT: Check if folding stability dG unfold >= 1 kcal/mol (inclusive). Item: SIEVEKTPDGKFEIENDNGWKVEIEVFPGMIEIKIKPVKVYVPDGKWFETPEEAEKMQEKNGVPITEDDLSA [r9_660_TrROS]
OUTPUT: condition not met

INPUT: Tell me whether folding stability dG unfold is at least 1 kcal/mol here: SAGGSAGGSAGPEIVLEGKPVELEVVEVGDKPVLIARFPDHYVVIDPEPDVIRLFSSEELSAGGSAGGSAGG [r11_9_TrMRF]
OUTPUT: condition not met
